Give measured IC50 for each item. Keep answers brief.
tgt: HCV replicon
assay.notes: HCV replicon luciferase reporter assay
Assay type: cell-based
test.parameters: Table 5; read-out: IC50
From the text: The inhibitory activity of certain exemplary compounds of the invention was confirmed using an HCV replicon assay. The HCV replicon can include such features as the HCV IRES, the HCV 3′ untranslated region, selected HCV genes encoding HCV polypeptides, selectable markers, and a reporter gene such as luciferase, GFP, etc. […] The cells were harvested, and HCV replication or translation was monitored via a reporter assay, e.g., a luciferase reporter assay. […]

The measured IC50 that CC(C)(C)NS(=O)(=O)c1ccc2c(NCCCN)nsc2c1 [Compound 508] showed for HCV replicon is > 5 µM

Bench note, HCV replicon: CC(C)(C)NS(=O)(=O)c1cccc2c(NCCCN)nsc12 [Compound 507] , IC50 reads > 5 µM

For CC(C)(C)NS(=O)(=O)c1cccc2snc(NCCCN)c12 [Compound 506] on HCV replicon, measured IC50 was > 5 µM
